- Tested on: MPNST complex spheroid with HUVEC/MSC, growth, % test/control
- test-name: Anticancer human tumor MPNST cell line growth inhibition [Asc];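 note: compounds left on spheroids for seven days before reading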
- experimental-conditions: second compound 0.3 µM; first compound 0.1 µM; stronger effect = lower value
Parameter: viability, T/C. Scope: all listed entries.
I only need the number, in %, no unit after it.

Entry NC1CCC(NC2CC2c2ccccc2)CC1 (stereo not given) + CCN1C(C(=O)NC23CCC(C(=O)O)(CC2)CC3)C(c2cccc(Cl)c2F)C2(C(=O)Nc3cc(Cl)ccc32)C12CCCCC2 has what viability, T/C?
75

Suppose we examine the compound CNC(C)C(=O)NC1CN(S(=O)(=O)c2cccc(S(=O)(=O)N3CCC4CCC(C(=O)NC(c5ccccc5)c5ccccc5)N4C(=O)C(NC(=O)C(C)NC)C3)c2)CCC2CCC(C(=O)NC(c3ccccc3)c3ccccc3)N2C1=O (stereo not given) + CCN1C(C(=O)NC23CCC(C(=O)O)(CC2)CC3)C(c2cccc(Cl)c2F)C2(C(=O)Nc3cc(Cl)ccc32)C12CCCCC2 ; what viability, T/C value has been reported?
99.8

Item under review: CCN1CCN(Cc2ccc(Nc3ncc(F)c(-c4cc(F)c5nc(C)n(C(C)C)c5c4)n3)nc2)CC1 + CCN1C(C(=O)NC23CCC(C(=O)O)(CC2)CC3)C(c2cccc(Cl)c2F)C2(C(=O)Nc3cc(Cl)ccc32)C12CCCCC2 . Reported viability, T/C?
103

Fill blank: measured viability, T/C of the compound C=CC(=O)N1CCN(c2nc(=O)n(-c3c(C)ccnc3C(C)C)c3nc(-c4c(O)cccc4F)c(F)cc23)C(C)C1 (stereo not given) + CCN1C(C(=O)NC23CCC(C(=O)O)(CC2)CC3)C(c2cccc(Cl)c2F)C2(C(=O)Nc3cc(Cl)ccc32)C12CCCCC2 is ____.
85.3

viability, T/C for Cn1ncnc1[C@H]1c2n[nH]c(=O)c3cc(F)cc(c23)N[C@@H]1c1ccc(F)cc1 + CCN1C(C(=O)NC23CCC(C(=O)O)(CC2)CC3)C(c2cccc(Cl)c2F)C2(C(=O)Nc3cc(Cl)ccc32)C12CCCCC2 ?
57.7

# viability, T/C lookup, item C#Cc1c(F)ccc2cc(O)cc(-c3ncc4c(N5CC6CCC(C5)N6)nc(OCC56CCCN5CC(F)C6)nc4c3F)c12 (stereo not given) + CCN1C(C(=O)NC23CCC(C(=O)O)(CC2)CC3)C(c2cccc(Cl)c2F)C2(C(=O)Nc3cc(Cl)ccc32)C12CCCCC2
73.6

* * *

- Test system: MPNST complex spheroid with HUVEC/MSC, growth, % test/control
- test-name: Anticancer human tumor MPNST cell line growth inhibition [Asc];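 note: compounds left on spheroids for seven days before reading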
- experimental-conditions: curve of first compound; second compound 0.0316 µM
Entries and their IC50
Value expressed in nM; do not type the unit.

O=C(c1cc(Cc2n[nH]c(=O)c3ccccc23)ccc1F)N1CCN(C(=O)C2CC2)CC1 + CNC(C)C(=O)NC1CN(S(=O)(=O)c2cccc(S(=O)(=O)N3CCC4CCC(C(=O)NC(c5ccccc5)c5ccccc5)N4C(=O)C(NC(=O)C(C)NC)C3)c2)CCC2CCC(C(=O)NC(c3ccccc3)c3ccccc3)N2C1=O; 2010

Proceeding to the next compound to report its IC50.
If you can, please state the reported IC50 value of Cn1ncnc1[C@H]1c2n[nH]c(=O)c3cc(F)cc(c23)N[C@@H]1c1ccc(F)cc1 + CNC(C)C(=O)NC1CN(S(=O)(=O)c2cccc(S(=O)(=O)N3CCC4CCC(C(=O)NC(c5ccccc5)c5ccccc5)N4C(=O)C(NC(=O)C(C)NC)C3)c2)CCC2CCC(C(=O)NC(c3ccccc3)c3ccccc3)N2C1=O .
23.2
